# Test system: B16-F1 mouse melanoma cells
# test protocol: Cytotoxicity, resazurin metabolism assay, B16-F1
# Type: cell-based
# assay conditions: 48 h, mean ± SD
pIC50: −log10 of the molar value.
Recorded pIC50 by entry
experimental readout: pIC50

- C=C(C)[C@@H]1CC[C@]2(C)CC[C@]3(C)[C@H](CC[C@@H]4[C@@]5(C)CC[C@H](O)C(C)(C)[C@@H]5CC[C@]43C)[C@@H]12 [Compound 1, Lupeol, reference compound]: 3.98
- C=C(C)[C@@H]1CC[C@]2(C(=O)OC)CC[C@]3(C)[C@H](CC[C@@H]4[C@@]5(C)CC[C@H](O[C@@H]6O[C@H](CO)[C@@H](O)[C@H](O)[C@H]6O)C(C)(C)[C@@H]5CC[C@]43C)[C@@H]12 [Compound 18]: 5.15
- C=C(C)C1CCC2(CO)CCC3(C)C(CCC4C5(C)CCC(OC6OCC(O)C(O)C6O)C(C)(C)C5CCC43C)C12 [Compound 14, 3-O-α-D-Arabinopyranoside of Betulin]: 4.42
- C=C(C)[C@@H]1CC[C@]2(C(=O)O)CC[C@]3(C)[C@H](CC[C@@H]4[C@@]5(C)CC[C@H](O)C(C)(C)[C@@H]5CC[C@]43C)[C@@H]12 [Compound 3, Betulinic acid, reference compound]: 4.79
- C=C(C)[C@@H]1CC[C@]2(C(=O)O)CC[C@]3(C)[C@H](CC[C@@H]4[C@@]5(C)CC[C@H](O[C@H]6OC[C@@H](O)[C@@H](O)[C@@H]6O)C(C)(C)[C@@H]5CC[C@]43C)[C@@H]12 [Compound 23]: 4.96
